- TARGET: BACE1 in primary mouse cortical neurons (mouse, UniProt P56818 46-501)
- Sequence (P56818 46-501): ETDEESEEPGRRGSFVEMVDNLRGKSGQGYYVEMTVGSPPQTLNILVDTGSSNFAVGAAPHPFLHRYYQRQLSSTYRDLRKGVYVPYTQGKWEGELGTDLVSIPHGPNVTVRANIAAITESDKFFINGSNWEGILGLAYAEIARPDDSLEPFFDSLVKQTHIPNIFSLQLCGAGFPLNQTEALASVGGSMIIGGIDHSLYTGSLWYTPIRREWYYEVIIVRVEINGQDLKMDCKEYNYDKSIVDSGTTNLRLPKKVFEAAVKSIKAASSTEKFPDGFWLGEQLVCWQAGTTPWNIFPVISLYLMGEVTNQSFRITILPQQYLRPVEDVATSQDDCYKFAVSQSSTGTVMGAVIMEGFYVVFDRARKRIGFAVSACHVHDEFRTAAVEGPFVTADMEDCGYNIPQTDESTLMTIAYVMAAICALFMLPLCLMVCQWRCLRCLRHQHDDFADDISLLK
- EXPERIMENT_NOTES: cell-based or functional assay
Parameter IC50, Abeta x-40 in mouse cortical neurons: see the listing below.
Please give a number only; it is taken to be in nM.

BINDER	MEASUREMENT
6307 (antibody, V domains shown, anti-BACE1 IgG) VH: QLQLQESGPGLVKPSETLSLTCTVSGGSISWSSYYWSWIRQPPGKGLEWIGSIYRSGRTYYNPSLKGRVTISVDTSKNQFSLKLSSVTAADTAVYYCARVGHGINYFDLWGRGTLVTVSS VL: EIVLTQSPATLSLSPGERATLSCRASQSVSSYLAWYQQKPGQAPRLLIYDASNRATGIPARFSGSGSGTDFTLTISSLEPEDFAVYYCQQSIVWPPRTFGGGTKVEIK	0.45

--- query ---
### Prompt Would you kindly share the measured IC50, Abeta x-40 in mouse cortical neurons for 6303 (antibody, V domains shown, anti-BACE1 IgG) VH: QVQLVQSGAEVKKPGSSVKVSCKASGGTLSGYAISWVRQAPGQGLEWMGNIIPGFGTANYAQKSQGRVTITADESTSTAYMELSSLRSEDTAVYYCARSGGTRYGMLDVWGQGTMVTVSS VL: EIVMTQSPATLSVSPGERATLSCRASQSVSSNLAWYQQKPGQAPRLLIFGASTRATGIPARFSGSGSGTEFTLTISSLQSEDFAVYYCQQLLTWPPRTFGGGTKVEIK ?
### Response 4.1
